ENDPOINT: melting point

{"MOLECULE": "CCCCCCCCOc1ccc(C#N)c(O)c1 [Compound 12-5, 2-Hydroxy-4-octyloxy-benzonitrile]", "melting point": "69 to 71 °C"}

melting point measured on `O=C(Nc1ccc(C(=O)O)c(O)c1)c1ccc(-c2ccccc2)cc1` = 266 °C (dec.)

melting point measured on `O=C(O)c1ccc(OCc2ccc(-c3ccccc3)cc2)cc1O` = 216 to 219 °C (dec.)

melting point measured on `O=C(O)c1ccc(OCc2ccc(-c3ccncc3)cc2)cc1O` = 252 to 257 °C (dec.)

melting point measured on `O=C(O)c1ccc(Oc2ccc(-c3ccccc3)cc2[N+](=O)[O-])cc1O` = > 200 °C (dec.)

====

ENDPOINT: melting point

// known answers, use as guide
{"ENTRY SMILES": "CCCCCCCCOc1ccc(NC(=O)C(F)(F)F)c(O)c1", "ENDPOINT": "melting point", "TEST VALUE": "114 to 116 °C"}
{"ENTRY SMILES": "COc1cccc(-c2cccc(COc3ccc(C(=O)O)c(O)c3)c2)c1", "ENDPOINT": "melting point", "TEST VALUE": "103 to 115 °C (dec.)"}
{"ENTRY SMILES": "CCCCCCCCOc1ccc(NS(C)(=O)=O)c(O)c1", "ENDPOINT": "melting point", "TEST VALUE": "98 to 101 °C"}

melting point measured on `O=C(O)c1ccc(OCc2ccc(-c3cccc(O)c3)cc2)cc1O` = 209 to 212 °C (dec.)

Taken from patent US7741352B2.
